tested on: MS2 coat protein; test: apparent KD of MS2 coat protein; designed switch direction (-1 OFF switch, 1 ON switch): -1; higher = weaker reporter binding; conditions: input ligand: FMN 200 uM
measured_attribute: apparent KD of MS2 coat protein (nM)
Kindly answer with a numeric value in nM, unit omitted.

sequence_chain	target_system	apparent KD of MS2 coat protein, nM
ACAUGAGGAUCACCCAUGUUUGGCUGGUUCUCUCCGGCUGUCGAGGAUAUAGUCCGGUAUCCGCGCUAGAAGGUGAGGGCUGGC [Aenatbe mod 6] (Eterna round: R96, puzzle: Exclusion NG 3)	MS2 coat protein	17

(Q) I am curious: what apparent KD of MS2 coat protein value has been reported for GUGACACAUGAGGAUCACCCAUGUGAGGAUAUAUCCGACUAUGAAAGGGUGUAGCAGGAUAGAAGGUACUGGCG [Eternabot (L2) Solution 54] (Eterna round: R97, puzzle: Exclusion 1) ?
(A) 83.1

(Q) I am curious: what apparent KD of MS2 coat protein value has been reported for CUCGUGUUAGGAUAUCUAUCGCGGAUGACAGAGAGGACGUUGGAGAAGGAACAUGAGGAUCACCCAUGUUCUGG [Eternabot (L2) Solution 86] (Eterna round: R97, puzzle: Exclusion 4) ?
(A) 18.8

(Q) I am curious: what apparent KD of MS2 coat protein value has been reported for UAUGUGUCAGGAUAUUAAUUAGAACAGAAUUUAACAAUAAUUAAGAAGGGACAUGAGGAUCACCCAUGUUCAUC [JR_Ex4_Sub023] (Eterna round: R97, puzzle: Exclusion 4) ?
(A) 27.9

(Q) I am curious: what apparent KD of MS2 coat protein value has been reported for ACAUGAGGAUCACCCAUGUAAACAUAAUGGCUCAUGUAGAGUCAGGAUAUGCGUGGCGAACACGCGCAGAAGGGACAAGACUGG [Deportation 24 - Jieux - Exclusion NG 3] (Eterna round: R96, puzzle: Exclusion NG 3) ?
(A) 32.4

(Q) I am curious: what apparent KD of MS2 coat protein value has been reported for UAUAUGUCAGGAUAUCGAUUAGAACAGAAUUUAACAAUAGUCGAGAAGGGACAUGAGGAUCACCCAUGUUCAAC [JR_Ex4_Sub021] (Eterna round: R97, puzzle: Exclusion 4) ?
(A) 41.7

Recorded values, source the supplement of paper PMC9170038.
